experiment.notes: Cytotoxicity: reduction of the viability of MT-4 cells, MTT assay
Assay type: cell-based
test.parameters: human; Table 3; 50% reduction of the viability of MT-4 cells; read-out: CC50
quantity.name: CC50 at 5 days

Which CC50 at 5 days is reported for this compound? CSCCC(C(=O)N1CCNCC1c1c[nH]c2ccccc12)N1CCCN(C(C)C)CC1 (stereo not shown) [TKB063A (25A)]
> 50 µM

----------
For each entry below, report its EC50 value.
System: HIV-1 (NL4-3 strain)
experiment.notes: Protection against HIV-1 (NL4-3 strain)-induced cytopathogenicity in MT-4 cells, MTT assay
Format: cell-based
test.parameters: Human immunodeficiency virus 1, NL43, MT4, Table 3; 50% protection from HIV-1 (NL4-3 strain)-induced cytopathogenicity in MT-4 cells
Numbers only, in µM.

molecule="CSCCC(C(=O)N1CCNCC1c1c[nH]c2ccccc12)N1CCCN(C(C)C)CC1 (stereo not shown) [TKB063A (25A)]" assay_system="HIV-1 (NL4-3 strain)" quantity_name=EC50 result=5

Need EC50 for each of these molecules.
1. CSCC[C@H](C(=O)N1CCNCC1c1c[nH]c2ccccc12)N1CCCN(C(C)C)CC1 (stereo partly shown)
2. CSCC[C@H](C)OC(=O)[C@@H](N)c1ccccc1-c1c[nH]c2ccccc12 [MKN-1 (1), reference compound]

1. 4.8
2. 2.3

Data provenance is paper PMC9834766.
